Each recorded value in this set is attributed to ChEMBL document CHEMBL5038653.

# targetOfAssay: UniProt P10632
# Sequence (P10632 whole entry): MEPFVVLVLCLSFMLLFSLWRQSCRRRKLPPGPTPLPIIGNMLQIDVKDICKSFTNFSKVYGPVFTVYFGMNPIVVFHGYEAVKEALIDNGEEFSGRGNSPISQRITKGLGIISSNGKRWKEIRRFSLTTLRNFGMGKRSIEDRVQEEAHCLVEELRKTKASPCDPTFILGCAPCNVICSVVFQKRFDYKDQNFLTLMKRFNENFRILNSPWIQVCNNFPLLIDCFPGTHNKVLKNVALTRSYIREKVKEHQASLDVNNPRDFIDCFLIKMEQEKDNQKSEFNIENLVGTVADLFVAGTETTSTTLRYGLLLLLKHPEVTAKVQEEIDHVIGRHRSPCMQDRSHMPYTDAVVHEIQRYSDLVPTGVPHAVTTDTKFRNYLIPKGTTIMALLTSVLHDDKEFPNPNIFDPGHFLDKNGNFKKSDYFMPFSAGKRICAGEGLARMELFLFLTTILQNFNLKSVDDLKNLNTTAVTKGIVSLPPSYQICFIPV
# methodNotes: Inhibition of human CYP2C8 by fluorescence plate reader analysis
# Type: ADME
readoutType: IC50

COc1cnc(C(=O)Nc2ccc(F)c([C@]3(C)Cn4nc(C#N)cc4C(N)=N3)c2)cn1    > 30 µM
C[C@@]1(c2cc(NC(=O)c3ccc(C#N)cn3)ccc2F)Cn2c(C#N)cnc2C(N)=N1    > 10 µM
